# Kd per entry for UniProtKB Q9NYJ7
Bridge positions count the residues as written; N and C are the ends. Square brackets hold non-standard residues; d marks the D form. Peptide text beside a SMILES is read from it. * marks the point of attachment. DOTA = O=C(O)CN1CCN(CC(=O)O)CCN(CC(=O)*)CCN(CC(=O)O)CC1; Chg = N[C@H](C(=O)O)C1CCCCC1
Observed property: Kd

# Compound, Endpoint value
measured = [
    ("CC(=O)N[C@H](C(=O)N[C@@H](CO)C(=O)N[C@@H](CC(=O)O)C(=O)N[C@H]1CSSC[C@@H](C(=O)N[C@@H](CCCCNC(=O)CN2CCN(CC(=O)O)CCN(CC(=O)O)CCN(CC(=O)O)CC2)C(=O)N[C@@H](Cc2ccccc2)C(=O)N[C@@H](CC(=O)O)C(N)=O)NC(=O)[C@H](CC(N)=O)NC(=O)[C@H](Cc2c[nH]c3ccccc23)NC(=O)[C@H](CCC(N)=O)NC(=O)[C@H](CC(C)C)NC(=O)[C@H](Cc2c[nH]c3ccccc23)NC1=O)C1CCCCC1 [compound 101] (Ac-[Chg]SDCWLQWNCK(DOTA)FD-NH2; disulfide 4-10)", "> 300 nM"),
    ("CC(=O)N[C@H](C)C(=O)N[C@@H](CO)C(=O)N[C@@](C)(CC(=O)O)C(=O)N[C@H]1CCCC[C@@H](C(=O)N2CCC[C@@]2(C)C(=O)N[C@@H](Cc2ccccc2)C(=O)N[C@@H](CC(=O)O)C(N)=O)NC(=O)[C@H](CC(N)=O)NC(=O)[C@H](Cc2ccc3ccccc3c2)NC(=O)[C@H](Cc2ccc(CNC(=O)CN3CCN(CC(=O)O)CCN(CC(=O)O)CCN(CC(=O)O)CC3)cc2)NC(=O)[C@H](CC(C)(C)C)NC(=O)[C@H](Cc2cccc3ccccc23)NC1=O", "0.082 nM"),
]

----------
# Measurement target: UniProt:Q9NYJ7
# Sequence (Q9NYJ7 27-618): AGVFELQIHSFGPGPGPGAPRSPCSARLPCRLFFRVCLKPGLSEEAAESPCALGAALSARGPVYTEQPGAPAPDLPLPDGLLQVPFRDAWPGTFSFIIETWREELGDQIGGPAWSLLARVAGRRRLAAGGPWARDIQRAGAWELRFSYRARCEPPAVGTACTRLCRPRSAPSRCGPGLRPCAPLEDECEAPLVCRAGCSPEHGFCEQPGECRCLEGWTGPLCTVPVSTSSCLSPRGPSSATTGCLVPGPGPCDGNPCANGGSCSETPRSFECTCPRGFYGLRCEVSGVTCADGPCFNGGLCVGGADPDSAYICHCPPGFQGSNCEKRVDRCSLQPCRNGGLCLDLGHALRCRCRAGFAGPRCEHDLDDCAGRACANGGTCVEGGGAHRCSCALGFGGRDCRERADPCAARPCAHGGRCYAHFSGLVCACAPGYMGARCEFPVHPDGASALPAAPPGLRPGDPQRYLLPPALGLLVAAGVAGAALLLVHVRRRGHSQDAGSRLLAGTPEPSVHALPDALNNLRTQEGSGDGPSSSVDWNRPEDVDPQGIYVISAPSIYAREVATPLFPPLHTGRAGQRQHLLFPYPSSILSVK
Bridge positions count the residues as written; N and C are the ends. Square brackets hold non-standard residues; d marks the D form. Peptide text beside a SMILES is read from it. * marks the point of attachment. DOTA = O=C(O)CN1CCN(CC(=O)O)CCN(CC(=O)*)CCN(CC(=O)O)CC1; 1Nal = N[C@@H](Cc1cccc2ccccc12)C(=O)O; Chg = N[C@H](C(=O)O)C1CCCCC1; αMeP = C[C@@]1(C(=O)O)CCCN1; Nle = CCCC[C@H](N)C(=O)O; Ahx = NCCCCCC(=O)O

# Molecule, Measurement target, Kd
measured = [
    ("CCCC[C@@H]1NC(=O)[C@H](Cc2c[nH]c3ccccc23)NC(=O)[C@@H](NC(=O)[C@H](CC(=O)O)NC(=O)[C@H](CO)NC(=O)[C@H](CCSC)NC(C)=O)CSSC[C@@H](C(=O)N2CCC[C@H]2C(=O)N[C@@H](Cc2ccccc2)C(=O)N[C@@H](CC(=O)O)C(=O)N[C@H](CCCCNC(=O)CN2CCN(CC(=O)O)CCN(CC(=O)O)CCN(CC(=O)O)CC2)C(N)=O)NC(=O)[C@H](CC(N)=O)NC(=O)[C@H](Cc2c[nH]c3ccccc23)NC(=O)[C@H](CCC(N)=O)NC1=O [compound 68] (Ac-MSDCW[Nle]QWNCPFD[dK](DOTA)-NH2; disulfide 4-10)", "UniProt:Q9NYJ7", "15.9 nM"),
    ("CC(=O)N[C@@H](CO)C(=O)N[C@@H](CC(=O)O)C(=O)N[C@H]1CSSC[C@@H](C(=O)N2CCC[C@H]2C(=O)N[C@@H](Cc2ccccc2)C(=O)N[C@@H](CC(=O)O)C(N)=O)NC(=O)[C@H](CC(N)=O)NC(=O)[C@H](Cc2c[nH]c3ccccc23)NC(=O)[C@H](CCC(N)=O)NC(=O)[C@H](CC(C)C)NC(=O)[C@H](Cc2c[nH]c3ccccc23)NC1=O [compound 5, Ac-S-D-C(3)-W-L-Q-W-N-C(3)-P-F-D-CONH2] (Ac-SDCWLQWNCPFD-NH2; disulfide 3-9)", "UniProt:Q9NYJ7", "> 100 nM"),
    ("CSCC[C@H](NC(C)=O)C(=O)N[C@@H](CO)C(=O)N[C@@H](CC(=O)O)C(=O)N[C@H]1CSSC[C@@H](C(=O)N[C@H](C)C(=O)N[C@@H](Cc2ccccc2)C(=O)N[C@@H](CC(=O)O)C(N)=O)NC(=O)[C@H](CC(N)=O)NC(=O)[C@H](Cc2c[nH]c3ccccc23)NC(=O)[C@H](CCC(N)=O)NC(=O)[C@H](CC(C)C)NC(=O)[C@H](Cc2c[nH]c3ccccc23)NC1=O [compound 16] (Ac-MSDCWLQWNC[dA]FD-NH2; disulfide 4-10)", "UniProt:Q9NYJ7", "> 100 nM"),
    ("CC(C)C[C@@H]1NC(=O)[C@H](Cc2c[nH]c3ccccc23)NC(=O)[C@@H](NC(=O)[C@H](CC(=O)O)NC(=O)[C@H](CO)NC(=O)CCCCCNC(=O)CN2CCN(CC(=O)O)CCN(CC(=O)O)CCN(CC(=O)O)CC2)CSSC[C@@H](C(=O)N2CCC[C@H]2C(=O)N[C@@H](Cc2ccccc2)C(=O)N[C@@H](CC(=O)O)C(=O)N[C@H](CCCCN)C(N)=O)NC(=O)[C@H](CC(N)=O)NC(=O)[C@H](Cc2c[nH]c3ccccc23)NC(=O)[C@H](CCC(N)=O)NC1=O [compound 73] ({DOTA-Ahx}-SDCWLQWNCPFD[dK]-NH2; disulfide 3-9)", "UniProt:Q9NYJ7", "> 100 nM"),
    ("CC(=O)N[C@H](C(=O)N[C@@H](CO)C(=O)N[C@@H](CC(=O)O)C(=O)N[C@H]1CSSC[C@@H](C(=O)N2CCC[C@H]2C(=O)N[C@@H](CCCCNC(=O)CN2CCN(CC(=O)O)CCN(CC(=O)O)CCN(CC(=O)O)CC2)C(=O)N[C@@H](CC(=O)O)C(N)=O)NC(=O)[C@H](CC(N)=O)NC(=O)[C@H](Cc2c[nH]c3ccccc23)NC(=O)[C@H](CCC(N)=O)NC(=O)[C@H](CC(C)C)NC(=O)[C@H](Cc2c[nH]c3ccccc23)NC1=O)C1CCCCC1 [compound 102] (Ac-[Chg]SDCWLQWNCPK(DOTA)D-NH2; disulfide 4-10)", "UniProt:Q9NYJ7", "> 100 nM"),
    ("CC(=O)N[C@H](C(=O)N[C@@H](CO)C(=O)N[C@@H](CC(=O)O)C(=O)N[C@H]1CSSC[C@@H](C(=O)N2CCC[C@H]2C(=O)N[C@@H](Cc2ccccc2)C(=O)N[C@@H](CC(=O)O)C(N)=O)NC(=O)[C@H](CC(N)=O)NC(=O)[C@H](CCCCNC(=O)CN2CCN(CC(=O)O)CCN(CC(=O)O)CCN(CC(=O)O)CC2)NC(=O)[C@H](CCC(N)=O)NC(=O)[C@H](CC(C)C)NC(=O)[C@H](Cc2c[nH]c3ccccc23)NC1=O)C1CCCCC1 [compound 99] (Ac-[Chg]SDCWLQK(DOTA)NCPFD-NH2; disulfide 4-10)", "UniProt:Q9NYJ7", "> 100 nM"),
    ("CC(=O)N[C@H](C(=O)N[C@@H](CCCCNC(=O)CN1CCN(CC(=O)O)CCN(CC(=O)O)CCN(CC(=O)O)CC1)C(=O)N[C@@H](CC(=O)O)C(=O)N[C@H]1CSSC[C@@H](C(=O)N2CCC[C@@]2(C)C(=O)N[C@@H](Cc2ccccc2)C(=O)N[C@@H](CC(=O)O)C(N)=O)NC(=O)[C@H](CC(N)=O)NC(=O)[C@H](Cc2c[nH]c3ccccc23)NC(=O)[C@H](CCC(N)=O)NC(=O)[C@H](CC(C)C)NC(=O)[C@H](Cc2cccc3ccccc23)NC1=O)C1CCCCC1 [compound 142] (Ac-[Chg]K(DOTA)DC[1Nal]LQWNC[αMeP]FD-NH2; disulfide 4-10)", "UniProt:Q9NYJ7", "20.2 nM"),
    ("CC(C)C[C@@H]1NC(=O)[C@H](Cc2c[nH]c3ccccc23)NC(=O)[C@@H](NC(=O)[C@H](CC(=O)O)NC(=O)[C@H](CO)NC(=O)CCCCCNC(=O)CN2CCN(CC(=O)O)CCN(CC(=O)O)CCN(CC(=O)O)CC2)CSSC[C@@H](C(=O)N2CCC[C@H]2C(=O)N[C@@H](Cc2cccc3ccccc23)C(=O)N[C@@H](CC(=O)O)C(N)=O)NC(=O)[C@H](CC(N)=O)NC(=O)[C@H](Cc2c[nH]c3ccccc23)NC(=O)[C@H](CCC(N)=O)NC1=O [compound 39] ({DOTA-Ahx}-SDCWLQWNCP[1Nal]D-NH2; disulfide 3-9)", "UniProt:Q9NYJ7", "> 100 nM"),
]
